amyloid nucleation score listing for selected substances.
- protocol: amyloid nucleation score (Sup35N fusion, yeast selection) (log enrichment); library NNK1; higher = more nucleation; inactive = no reads after selection;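 note: zero at mode of non-aggregating sequences after 7 days selection at 30°C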

| substance | amyloid nucleation score |
| --- | --- |
| IRLNVFFNMELMRLDLLWR | 0.311 |
| CCQSFLLKSPSYRAMAFIWW | -0.929 |
| FFHSAYCFCNNLPMGLDLWS | 5.81 |
| RGICWWLNIHWGKAMDMLGP | 0.428 |
| ISNVWNCGKFRSLGLFVTGQ | 0.247 |
| VEEAYER | -0.485 |
| WRYKIIRSR | 1.5 |
| NNIVLDFLFGVSLHRFGPHH | 4.43 |
| VMKELLMTHLLSCCLYSLCL | 1.28 |
| VKEWGTNSVLGSYTVAQEMS | 0.096 |
| YEMVRGCLNMSMMTDKFRAE | 0.851 |
| TTSYHTNGRAVRIVYPFANS | -0.096 |
| YYPNKLFEYSKWNHAAGRVR | 0.085 |
| AIRPSIR | -0.318 |
| YGILSLRICSLENSLSA | -1.34 |
| VFTHAFNMLCVFYTSQGLKR | 5.35 |
| RGGRWLMATWMMPGNGCLAA | 0.708 |
| RYHPMG | -0.074 |
| ADLRVFHYRYFGS | -0.223 |
| NTKSTPNTSVLFSLTTRI | 1.3 |
| SLAPLHLFERMGGRS | 0.532 |
| TVMSNHGHLMKYYFVRLEGF | 0.759 |
| LRVAFIKLKHKKFNDMYRSM | 0.156 |
| RHAKRLWRV | -0.574 |
| KAEVRVRARELAEGMGARGR | 0.693 |
| CAVVVGVSGGAHEGVGKTKY | -0.35 |
| YWSLYSPFYAIHSVILTICQ | 0.496 |
| YLQETLYNKWDWFGNHQGLM | 0.107 |
| GFSRYSPRSKFFNSLVLKSS | -0.171 |
| IYCEEFMLEMTSRIRV | -0.976 |
| EPMMLY | 0.333 |
| LFDARDSRFSCRYVMRRVWV | 0.195 |
| DNTHSSFIHFETGKKYYA | 0.319 |
| LRWLSRKILLTVRASN | -0.125 |

====

- protocol: amyloid nucleation score (Sup35N fusion, yeast selection) (log enrichment); library NNK3; higher = more nucleation; inactive = no reads after selection
propertyMeasured: amyloid nucleation score

| substance | propertyMeasured | result |
| --- | --- | --- |
| FDRYYVSPLRVLHQVGCEIL | amyloid nucleation score | inactive |
| VSLIVLVRSVCSCVTHSFYE | amyloid nucleation score | 2.08 |
| CVYYSRKG | amyloid nucleation score | 1.95 |
| SDGSTRQSVRRVATPNVSRY | amyloid nucleation score | inactive |
| FSEASPLYVTSPRQSSLPRP | amyloid nucleation score | inactive |
| WNGILHMMVGGLKTLIGMDY | amyloid nucleation score | inactive |
| YLSPEAQKLDQIDSMSADMV | amyloid nucleation score | inactive |
| WVQVCCVNTNGRSFQLEGSI | amyloid nucleation score | 1.36 |
| NCELGYARPLGDAMLNRAWF | amyloid nucleation score | inactive |
| YNSLRGR | amyloid nucleation score | inactive |
| RLSYRVNCLRCPNFWNRHMS | amyloid nucleation score | 1.93 |
| FFIDYIHTYRYESSASMS | amyloid nucleation score | inactive |
| KVRNPWMRIDTVCRFFILVV | amyloid nucleation score | inactive |
| GAFPRGSS | amyloid nucleation score | inactive |
| VLCCANKYSFTNQQSGSASE | amyloid nucleation score | 0.952 |
| GLTLFWITAVAQAWDWLDPL | amyloid nucleation score | inactive |
| AGTKSLRNYGWCLYDGGFYH | amyloid nucleation score | inactive |
